# maps each entry to its RALB
Species: Rattus norvegicus
Test description: Open TG-GATES - Regimen: Single
Format: toxicity, organism-based, Sprague-Dawley
Set-up: regimen Single, gender Male, age 6 weeks
Condition details: in vivo, po, 0 mg/kg, 6 h, tissue Plasma, route gavage, dose level Control
Give the value in g/dL but do not write g/dL after it.

Example cases with answers are listed next.
CC(=O)[C@@]1(O)CC[C@H]2[C@@H]3C=C(Cl)C4=CC(=O)CC[C@]4(C)[C@H]3CC[C@@]21C; 2.9
NS(=O)(=O)c1cc(C(=O)O)c(NCc2ccco2)cc1Cl [FUROSEMIDE]; 2.6
CN(C)CCCN1c2ccccc2Sc2ccc(Cl)cc21; 3.4
CCO; 3.8
O=c1ccc2ccccc2o1; 3.8

Sure, the documented RALB for "O=C(O)c1ccccc1Nc1ccccc1" is 2.5

Sure, the documented RALB for CCCCNC(=O)NS(=O)(=O)c1ccc(C)cc1 [TOLBUTAMIDE] is 2.5

Sure, the documented RALB for "C=C[C@H]1C[N@@]2CC[C@H]1C[C@@H]2[C@@H](O)c1ccnc2ccc(OC)cc12" is 3.1

Sure, the documented RALB for "CCN(CC)C(=S)SSC(=S)N(CC)CC" is 3

Sure, the documented RALB for "COc1cc2ncnc(Nc3ccc(F)c(Cl)c3)c2cc1OCCCN1CCOCC1" is 3.9

Sure, the documented RALB for "CN(C/C=C/C#CC(C)(C)C)Cc1cccc2ccccc12" is 3.5

Sure, the documented RALB for "COc1ccc([C@@H]2Sc3ccccc3N(CCN(C)C)C(=O)[C@@H]2OC(C)=O)cc1" is 2.5

Sure, the documented RALB for CC(S)C(=O)NCC(=O)O (stereo not given) is 2.9

Sure, the documented RALB for CN(CCOc1ccc(CC2SC(=O)NC2=O)cc1)c1ccccn1.O=C(O)/C=C\C(=O)O (stereo not given) [ROSIGLITAZONE MALEATE] is 3.7

Sure, the documented RALB for "Nc1ccc(Cc2ccc(N)cc2)cc1" is 2.5

* * *

Species on record: Rattus norvegicus
Test description: Open TG-GATES - Regimen: Daily Repeat
Type: toxicity, organism-based, Sprague-Dawley
Design: regimen Daily Repeat, gender Male, age 6 weeks
Condition details: in vivo, po, 100 mg/kg, […], tissue Plasma, route gavage, dose level Low, time 7 day
# maps each entry to its IP
Give the value in mg/dL but do not write mg/dL after it.

CC(S)C(=O)NCC(=O)O (centres undefined); 7.3
O=C(O)c1ccccc1Nc1ccccc1; 6.8
CC(=O)[C@@]1(O)CC[C@H]2[C@@H]3C=C(Cl)C4=CC(=O)CC[C@]4(C)[C@H]3CC[C@@]21C; 7.2

Now look at this one.
Sure, the documented IP for CCCCNC(=O)NS(=O)(=O)c1ccc(C)cc1 [TOLBUTAMIDE] is 7.9

* * *

Species on record: Rattus norvegicus
Test description: Open TG-GATES - Regimen: Single
Format: toxicity, organism-based, Sprague-Dawley
Parameters: regimen Single, gender Male, age 6 weeks
Condition details: in vivo, po, 0 mg/kg, 9 h, tissue Blood, route gavage, dose level Control
# maps each entry to its WBC
Give the value in x10_2/uL but do not write x10_2/uL after it.

Example cases with answers are listed next.
O=c1ccc2ccccc2o1; 106.8
O=C(O)c1ccccc1Nc1ccccc1; 69
COc1ccc([C@@H]2Sc3ccccc3N(CCN(C)C)C(=O)[C@@H]2OC(C)=O)cc1; 78.7
CCCCNC(=O)NS(=O)(=O)c1ccc(C)cc1 [TOLBUTAMIDE]; 72.5
CN(C)CCCN1c2ccccc2Sc2ccc(Cl)cc21; 82.3

Sure, the documented WBC for CN(CCOc1ccc(CC2SC(=O)NC2=O)cc1)c1ccccn1.O=C(O)/C=C\C(=O)O (centres undefined) [ROSIGLITAZONE MALEATE] is 93.6

Sure, the documented WBC for CC(S)C(=O)NCC(=O)O (centres undefined) is 95.7

* * *

Species: Rattus norvegicus
Test description: Open TG-GATES - Regimen: Daily Repeat
Type: toxicity, organism-based, Sprague-Dawley
Set-up: regimen Daily Repeat, gender Male, age 6 weeks
Condition details: in vivo, po, 100 mg/kg, […], tissue Blood, route gavage, dose level Low, time 14 day
# maps each entry to its Ht
Give the value in % but do not write % after it.

CC(S)C(=O)NCC(=O)O (centres undefined); 41.1
CCCCNC(=O)NS(=O)(=O)c1ccc(C)cc1 [TOLBUTAMIDE]; 43.5
O=C(O)c1ccccc1Nc1ccccc1; 41.6

Sure, the documented Ht for "CC(=O)[C@@]1(O)CC[C@H]2[C@@H]3C=C(Cl)C4=CC(=O)CC[C@]4(C)[C@H]3CC[C@@]21C" is 43.9

* * *

Species on record: Rattus norvegicus
Test description: Open TG-GATES - Regimen: Daily Repeat
Assay type: toxicity, organism-based, Sprague-Dawley
Parameters: regimen Daily Repeat, gender Male, age 6 weeks
Condition details: in vivo, po, 1000 mg/kg, […], tissue Blood, route gavage, dose level High, time 14 day
# maps each entry to its Lym
Quick note: number first, unit second.

Example cases with answers are listed next.
CC(S)C(=O)NCC(=O)O (centres undefined) [TIOPRONIN]; 81.2%
CC(=O)[C@@]1(O)CC[C@H]2[C@@H]3C=C(Cl)C4=CC(=O)CC[C@]4(C)[C@H]3CC[C@@]21C [CHLORMADINONE]; 80%

Sure, the documented Lym for CCCCNC(=O)NS(=O)(=O)c1ccc(C)cc1 [TOLBUTAMIDE] is 82.8%

Sure, the documented Lym for O=C(O)c1ccccc1Nc1ccccc1 [FENAMIC ACID] is 53.3%

* * *

Species: Rattus norvegicus
Test description: Open TG-GATES - Regimen: Daily Repeat
Assay type: toxicity, organism-based, Sprague-Dawley
Design: regimen Daily Repeat, gender Male, age 6 weeks
Condition details: in vivo, po, 1000 mg/kg, […], tissue Plasma, route gavage, dose level High, time 14 day
# maps each entry to its Na
Give the value in meq/L but do not write meq/L after it.

Example cases with answers are listed next.
CCCCNC(=O)NS(=O)(=O)c1ccc(C)cc1 [TOLBUTAMIDE]; 142.4
CC(S)C(=O)NCC(=O)O (centres undefined); 140.2
O=C(O)c1ccccc1Nc1ccccc1; 145.3

Sure, the documented Na for "CC(=O)[C@@]1(O)CC[C@H]2[C@@H]3C=C(Cl)C4=CC(=O)CC[C@]4(C)[C@H]3CC[C@@]21C" is 142

* * *

# maps each entry to its Ret
Organism: Rattus norvegicus
Test description: Open TG-GATES - Regimen: Daily Repeat
Type: toxicity, organism-based, Sprague-Dawley
Design: regimen Daily Repeat, gender Male, age 6 weeks
Condition details: in vivo, po, 300 mg/kg, […], tissue Blood, route gavage, dose level Middle, time 14 day
Give the value in % but do not write % after it.

Example cases with answers are listed next.
CC(=O)[C@@]1(O)CC[C@H]2[C@@H]3C=C(Cl)C4=CC(=O)CC[C@]4(C)[C@H]3CC[C@@]21C; 3.1
CC(S)C(=O)NCC(=O)O (centres undefined); 5
CCCCNC(=O)NS(=O)(=O)c1ccc(C)cc1 [TOLBUTAMIDE]; 4.3

Now look at this one.
Sure, the documented Ret for "O=C(O)c1ccccc1Nc1ccccc1" is 4.7

* * *

# maps each entry to its K
Organism: Rattus norvegicus
Test description: Open TG-GATES - Regimen: Single
Format: toxicity, organism-based, Sprague-Dawley
Set-up: regimen Single, gender Male, age 6 weeks
Condition details: in vivo, po, 0 mg/kg, 24 h, tissue Plasma, route gavage, dose level Control
Give the value in meq/L but do not write meq/L after it.

CCN(CC)C(=S)SSC(=S)N(CC)CC; 4.2

Sure, the documented K for CN(C/C=C/C#CC(C)(C)C)Cc1cccc2ccccc12 [TERBINAFINE] is 4.2

Sure, the documented K for "Nc1ccc(Cc2ccc(N)cc2)cc1" is 3.9

Sure, the documented K for CC(=O)[C@@]1(O)CC[C@H]2[C@@H]3C=C(Cl)C4=CC(=O)CC[C@]4(C)[C@H]3CC[C@@]21C [CHLORMADINONE] is 4.7

Sure, the documented K for CCCCNC(=O)NS(=O)(=O)c1ccc(C)cc1 [TOLBUTAMIDE] is 4

Sure, the documented K for O=c1ccc2ccccc2o1 [COUMARIN] is 5.5

Sure, the documented K for CC(S)C(=O)NCC(=O)O (stereo unspecified) [TIOPRONIN] is 4.4

Sure, the documented K for CN(CCOc1ccc(CC2SC(=O)NC2=O)cc1)c1ccccn1.O=C(O)/C=C\C(=O)O (stereo unspecified) [ROSIGLITAZONE MALEATE] is 4.4

Sure, the documented K for C=C[C@H]1C[N@@]2CC[C@H]1C[C@@H]2[C@@H](O)c1ccnc2ccc(OC)cc12 [QUINIDINE] is 4.3

Sure, the documented K for CCO [ALCOHOL] is 4.7

Sure, the documented K for O=C(O)c1ccccc1Nc1ccccc1 [FENAMIC ACID] is 4.2
